From: ChEMBL document CHEMBL6092147

# Target system: UniProt:P0DTD1
# Assay comment: Inhibition of SARS-CoV-2 Main protease extracted from Escherichia coli BL21 (DE3) cells measured for 60 mins by FRET based analysis
Measured IC50, listed per entry.
Reported endpoint: IC50 (µM)

| Compound | Reported endpoint | Quantitative readout |
| --- | --- | --- |
| Cc1ccc(NC(=O)CN2CCCC2)cc1C(=O)N[C@H](C)c1cccc2ccccc12 | IC50 | 1.1 |
| Cc1ccc(NC2CCN(C[C@@H]3CCCN3)CC2)cc1C(=O)N[C@H](C)c1cccc2ccccc12 | IC50 | 1 |
| Cc1ccc(NCC2CN(C)CCN2)cc1C(=O)N[C@H](C)c1cccc2ccccc12 (mixture of isomers) | IC50 | 1.5 |
| Cc1ccc(NCC2(C)CCN2)cc1C(=O)N[C@H](C)c1cccc2ccccc12 (mixture of isomers) | IC50 | 0.8 |
| Cc1ccc(NC(=O)[C@H]2CCCN2)cc1C(=O)N[C@H](C)c1cccc2ccccc12 | IC50 | 1.4 |

###

# Target system: Replicase polyprotein 1ab (Severe acute respiratory syndrome coronavirus 2)
# Assay comment: Inhibition of SARS-CoV-2 papain-like protease (PLpro) by FRET analysis
Measured IC50, listed per entry.
Reported endpoint: IC50

| Compound smiles | Target system | Result |
| --- | --- | --- |
| Cc1ccc(OCC[N+](C)(C)C)cc1C(=O)N[C@H](C)c1cc(-c2cccs2)cc(-c2cccs2)c1 | Replicase polyprotein 1ab (Severe acute respiratory syndrome coronavirus 2) | 130 nM |
| Cc1ccc(NC(=O)C2CCNCC2)cc1C(=O)N[C@H](C)c1cc(-c2cccs2)cc(-c2cccs2)c1 | Replicase polyprotein 1ab (Severe acute respiratory syndrome coronavirus 2) | 163 nM |
| Cc1ccc(OCCN2CCCC2)cc1C(=O)N[C@H](C)c1cc(-c2cccs2)cc(-c2cccs2)c1 | Replicase polyprotein 1ab (Severe acute respiratory syndrome coronavirus 2) | 70 nM |
| Cc1ccc(NC2CCN(C)CC2)cc1C(=O)N[C@H](C)c1cc(-c2cccs2)cc(-c2cccs2)c1 | Replicase polyprotein 1ab (Severe acute respiratory syndrome coronavirus 2) | 180 nM |
| Cc1ccc(NC2CNC2)cc1C(=O)N[C@H](C)c1cc(-c2cccs2)cc(-c2cccs2)c1 | Replicase polyprotein 1ab (Severe acute respiratory syndrome coronavirus 2) | 171 nM |
| Cc1ccc(N)cc1C(=O)N[C@H](C)c1cc(-c2cccs2)cc(-c2cccs2)c1 | Replicase polyprotein 1ab (Severe acute respiratory syndrome coronavirus 2) | 170 nM |
| Cc1ccc(OCCN)cc1C(=O)N[C@H](C)c1cc(-c2cccs2)cc(-c2cccs2)c1 | Replicase polyprotein 1ab (Severe acute respiratory syndrome coronavirus 2) | 60 nM |
| Cc1ccc(OCCN2CCOCC2)cc1C(=O)N[C@H](C)c1cc(-c2cccs2)cc(-c2cccs2)c1 | Replicase polyprotein 1ab (Severe acute respiratory syndrome coronavirus 2) | 360 nM |
| Cc1ccc(OCCN(C)C)cc1C(=O)N[C@H](C)c1cc(-c2cccs2)cc(-c2cccs2)c1 | Replicase polyprotein 1ab (Severe acute respiratory syndrome coronavirus 2) | 60 nM |

###

# Target system: Replicase polyprotein 1ab (Severe acute respiratory syndrome coronavirus 2)
# Assay comment: Inhibition of SARS-CoV-2 papain-like protease (PLpro) by FRET analysis
pIC50: −log10 of the molar value.
Measured pIC50, listed per entry.
Reported endpoint: pIC50

| Compound smiles | Reported endpoint | Quantitative readout |
| --- | --- | --- |
| Cc1ccc(NC(=O)CN(C)C)cc1C(=O)N[C@H](C)c1cc(-c2cccs2)cc(-c2cccs2)c1 | pIC50 | 6.96 |
| Cc1ccc(NC(=O)CN)cc1C(=O)N[C@H](C)c1cc(-c2cccs2)cc(-c2cccs2)c1 | pIC50 | 6.85 |
| Cc1ccc(NCC2CNC2)cc1C(=O)N[C@H](C)c1cc(-c2cccs2)cc(-c2cccs2)c1 | pIC50 | 6.47 |
| Cc1ccc(NCCN2CCCCC2)cc1C(=O)N[C@H](C)c1cc(-c2cccs2)cc(-c2cccs2)c1 | pIC50 | 6.96 |

###

# Target system: Replicase polyprotein 1ab (Severe acute respiratory syndrome coronavirus 2)
# Assay comment: Inhibition of SARS-CoV-2 3CL protease extracted from Escherichia coli BL21 (DE3) Rosetta cells using DabcylKNSTLQSGLRKE-Edan as substrate preincubated for 60 mins followed by substrate addition and measured after 20 mins by FRET assay
pIC50: −log10 of the molar value.
Reported endpoint: pIC50

| Compound | Target system | Reported endpoint | Quantitative readout |
| --- | --- | --- | --- |
| CCC(C(=O)Nc1cc(NC2COC2)ccc1C)n1cccc2nc(SCc3ccc(F)cc3)nc1-2 (racemic) | Replicase polyprotein 1ab (Severe acute respiratory syndrome coronavirus 2) | pIC50 | 6.52 |
| CCC(C(=O)Nc1cc(NC2CCOCC2)ccc1C)n1cc(F)cc2nc(SCc3ccc(F)cc3)nc1-2 (racemic) | Replicase polyprotein 1ab (Severe acute respiratory syndrome coronavirus 2) | pIC50 | 5.85 |
| CCC(C(=O)Nc1cc(NC2CCOC2)ccc1C)n1cc(F)cc2nc(SCc3ccc(F)cc3)nc1-2 (racemic) | Replicase polyprotein 1ab (Severe acute respiratory syndrome coronavirus 2) | pIC50 | 5.73 |
| CCC(C(=O)Nc1cc(NC2CCOC2)ccc1C)n1cc(Cl)cc2nc(SCc3ccc(F)cc3)nc1-2 (racemic) | Replicase polyprotein 1ab (Severe acute respiratory syndrome coronavirus 2) | pIC50 | 6.80 |

###

# Target system: Replicase polyprotein 1ab (Severe acute respiratory syndrome coronavirus 2)
# Assay comment: Inhibition of SARS-CoV-2 3CL protease extracted from Escherichia coli BL21 (DE3) Rosetta cells using DabcylKNSTLQSGLRKE-Edan as substrate preincubated for 60 mins followed by substrate addition and measured after 20 mins by FRET assay

| Molecule | Unit string | IC50 |
| --- | --- | --- |
| CCC(C(=O)Nc1cc(NC2COC2)ccc1C)n1cc(F)cc2nc(SCc3ccc(F)cc3)nc1-2 (racemic) | µM | 0.4 |
| CCC(C(=O)Nc1cc(NC2CCOCC2)ccc1C)n1cccc2nc(SCc3ccc(F)cc3)nc1-2 (racemic) | µM | 0.6 |
| CCC(C(=O)Nc1cc(NC2CCOC2)ccc1C)n1cc(Br)cc2nc(SCc3ccc(F)cc3)nc1-2 (racemic) | µM | 0.5 |
| CCC(C(=O)Nc1ccccc1C)n1cc(F)cc2nc(SCc3ccc(F)cc3)nc1-2 (racemic) | µM | 5.09 |

###

# Target system: Replicase polyprotein 1ab (Severe acute respiratory syndrome coronavirus 2, UniProt P0DTD1)
# Assay comment: Inhibition of His-tagged SARS-CoV-2 papain-like protease (PLpro) incubated for 30 mins by FRET assay
pIC50: −log10 of the molar value.

| Compound smiles | pIC50 |
| --- | --- |
| C[C@H](c1cccc2ccccc12)N(C)Cc1ccc(OCC(N)=O)cc1 | 5.55 |

###

# Target system: Replicase polyprotein 1ab (Severe acute respiratory syndrome coronavirus 2)
# Assay comment: Inhibition of SARS-CoV-2 Main protease
pIC50: −log10 of the molar value.
Measured pIC50, listed per entry.

| Molecule | Target system | pIC50 |
| --- | --- | --- |
| Cc1ccc(NCC2CCN2)cc1C(=O)N[C@H](C)c1cccc2ccccc12 (mixture of isomers) | Replicase polyprotein 1ab (Severe acute respiratory syndrome coronavirus 2) | 6.05 |
| Cc1ccc(NC(=O)[C@@H]2CCCCN2)cc1C(=O)N[C@H](C)c1cccc2ccccc12 | Replicase polyprotein 1ab (Severe acute respiratory syndrome coronavirus 2) | 5.89 |
| Cc1ccc(NC(=O)CN)cc1C(=O)N[C@H](C)c1cccc2ccccc12 | Replicase polyprotein 1ab (Severe acute respiratory syndrome coronavirus 2) | 5.48 |
| Cc1ccc(NC[C@@H]2CCCCN2)cc1C(=O)N[C@H](C)c1cccc2ccccc12 | Replicase polyprotein 1ab (Severe acute respiratory syndrome coronavirus 2) | 6.05 |
| Cc1ccc(NC[C@@H]2CCCN2)cc1C(=O)N[C@H](C)c1cccc2ccccc12 | Replicase polyprotein 1ab (Severe acute respiratory syndrome coronavirus 2) | 6.10 |
| Cc1ccc(NC[C@H]2CCCCN2)cc1C(=O)N[C@H](C)c1cccc2ccccc12 | Replicase polyprotein 1ab (Severe acute respiratory syndrome coronavirus 2) | 5.85 |
| Cc1ccc(NC[C@H]2CCCN2)cc1C(=O)N[C@H](C)c1cccc2ccccc12 | Replicase polyprotein 1ab (Severe acute respiratory syndrome coronavirus 2) | 6.05 |
| Cc1ccc(NC[C@@H]2CCCN2C)cc1C(=O)N[C@H](C)c1cccc2ccccc12 | Replicase polyprotein 1ab (Severe acute respiratory syndrome coronavirus 2) | 6.05 |
| Cc1ccc(NC(N)=O)cc1C(=O)N[C@H](C)c1cccc2ccccc12 | Replicase polyprotein 1ab (Severe acute respiratory syndrome coronavirus 2) | 5.42 |
| Cc1ccc(NC(=O)C2(N)CC2)cc1C(=O)N[C@H](C)c1cccc2ccccc12 | Replicase polyprotein 1ab (Severe acute respiratory syndrome coronavirus 2) | 5.42 |
| Cc1ccc(NC(=O)[C@H]2CCCCN2)cc1C(=O)N[C@H](C)c1cccc2ccccc12 | Replicase polyprotein 1ab (Severe acute respiratory syndrome coronavirus 2) | 6.52 |
